- Test system: rabbit serum obtained by immunizing a rabbit with the SARS-CoV strain Frankfurt 1
- Format: binding
- Set-up: unit not given here
Result Type: Binding of a rabbit serum to looped peptides
Numbers only.

[[record]]
item_sequence = "SITAQPVKIDNASPA"
target_desc = "rabbit serum obtained by immunizing a rabbit with the SARS-CoV strain Frankfurt 1"
result_number = 0.4


Report Binding of a rabbit serum to looped peptides for every entry below.
1. QQWIQFMMSRRRLLA
2. LYDANYFVCWHTHNY
3. IYFLQCINACRIIMR
4. WQLALYKGFQFICNL
5. QPVKIDNASPASTVH

1. 1.5
2. 0.5
3. 0.9
4. 0.6
5. 0.4

// for each sequence in input: emit Binding of a rabbit serum to looped peptides
1. RWQLALYKGFQFICN
2. ENATFFIFNKLVKDP
3. HNYDYCIPYNSVTDT

0.9
0.5
0.5
